target: PEG-3 (UniProt Q6IN02); test: Peg3 promoter luciferase inhibitors, potency, dose response, cell-based, HeLa, CREF/GAPDH counter-screen panel (AID 624167); conditions: CREF/GAPDH counter-screens; HeLa PEG-Prom luciferase reporter, overnight, run 1, dose range 1, at 100 µM (top of the series) unless noted
Sequence (Q6IN02 whole entry, looked up): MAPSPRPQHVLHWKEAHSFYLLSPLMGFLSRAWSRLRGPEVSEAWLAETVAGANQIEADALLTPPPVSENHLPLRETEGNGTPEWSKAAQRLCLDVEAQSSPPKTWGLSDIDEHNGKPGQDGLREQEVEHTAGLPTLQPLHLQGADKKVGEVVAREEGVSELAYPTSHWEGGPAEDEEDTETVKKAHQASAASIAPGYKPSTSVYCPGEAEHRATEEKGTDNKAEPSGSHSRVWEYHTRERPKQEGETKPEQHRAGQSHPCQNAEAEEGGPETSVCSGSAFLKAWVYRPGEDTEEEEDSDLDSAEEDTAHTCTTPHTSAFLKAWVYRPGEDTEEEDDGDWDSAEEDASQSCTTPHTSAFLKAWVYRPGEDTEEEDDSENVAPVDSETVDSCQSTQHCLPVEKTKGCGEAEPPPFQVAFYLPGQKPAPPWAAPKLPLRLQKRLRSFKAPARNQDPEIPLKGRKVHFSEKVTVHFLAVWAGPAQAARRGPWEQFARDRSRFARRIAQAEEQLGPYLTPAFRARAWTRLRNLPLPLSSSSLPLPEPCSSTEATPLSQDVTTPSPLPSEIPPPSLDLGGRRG
PROPERTY_LABEL: inhibition (%)
The reply should be a number in %, with the unit left off.

Please review the following examples before continuing.
| COMPOUND | EXPERIMENTAL_TARGET | inhibition [%] |
| --- | --- | --- |
| Oc1c(Br)cc(Br)c2cccnc12 | PEG-3 (UniProt Q6IN02) | 81.8 |
| CCCC(=O)NC(c1ccc(OC)cc1)c1ccc2cccnc2c1O (stereo unspecified) | PEG-3 (UniProt Q6IN02) | 66.6 |
| COCC(C)n1c(C)cc(C(=O)COC(=O)c2cccn2C)c1C (stereo unspecified) | PEG-3 (UniProt Q6IN02) | 75.2 |
| Nc1nonc1-n1nnc(C(=O)N/N=C/c2cc(Br)ccc2O)c1CNc1ccccc1 | PEG-3 (UniProt Q6IN02) | 89.3 |
| COc1ccc2c(c1)C=C([C@@H]1C[C@H]3CN(c4ccccc4)C(=O)[C@]34CCCN14)CO2 | PEG-3 (UniProt Q6IN02) | 65.2 |

Value wanted: inhibition (PEG-3 (UniProt Q6IN02)) of entry `O=C(Cn1ncc(Cl)c(Cl)c1=O)N1CCc2ccccc21`
99.5

Value wanted: inhibition (PEG-3 (UniProt Q6IN02)) of entry `Cc1c([N+](=O)[O-])cc(N2C(=O)C=CC2=O)cc1[N+](=O)[O-]`
102

Value wanted: inhibition (PEG-3 (UniProt Q6IN02)) of entry `CN(C)CCCN(C(=O)c1ccc(S(=O)(=O)N2CCc3ccccc3C2)cc1)c1nc2ccc(F)cc2s1`
102

Value wanted: inhibition (PEG-3 (UniProt Q6IN02)) of entry `CN1CCN(c2ccc(NC(=O)N3CCc4ccccc43)cc2)CC1`
87.9

Value wanted: inhibition (PEG-3 (UniProt Q6IN02)) of entry `CCOc1ccc(-c2ccc(SC)nn2)cc1`
95

Value wanted: inhibition (PEG-3 (UniProt Q6IN02)) of entry `O=C(CN1C(=O)c2ccccc2S1(=O)=O)c1ccc2c(c1)OCCCO2`
98.1

Value wanted: inhibition (PEG-3 (UniProt Q6IN02)) of entry CC(=O)NC(c1ccc(Cl)cc1Cl)c1ccc2cccnc2c1O (stereo unspecified)
96.5

====

experiment: inhibitors of PAF-induced NFkB signaling in CF airway cells, dose response, cell-based, uHTS hits, panel, cytotoxicity readout (AID 624344); details: CF bronchial epithelial cells, PAF-induced NFkB reporter inhibition, with PAF, run 1; at 79 µM (top of the series) unless noted
PROPERTY_LABEL: inhibition
Value and unit, in that order.

| COMPOUND | RECORDED_RESULT |
| --- | --- |
| COc1cc(C(=O)Nc2nnc(-c3sccc3C)s2)cc(OC)c1OC | 47.9% |
| COc1ccc(-c2cc(=O)oc3c(C)c(O)ccc23)cc1 | 94.8% |
| CC(C)(CO)CNc1ccn2nccc2n1 | 114% |
| COc1ccc2[nH]c3c(c2c1)CCNC3=O | 103% |
| COc1cc(NC(=O)c2cc3ccccc3cc2OC)ccc1NC(=O)c1cccs1 | 98.1% |

# query: inhibition of entry `Nc1nccc(SCc2ccc(Cl)cc2Cl)n1`
72.7%

# query: inhibition of entry `COc1ccc(S(=O)(=O)N(C(C)=O)c2ccc(OC(C)=O)c3ccccc23)cc1[N+](=O)[O-]`
59.1%

# query: inhibition of entry `CC1CCN(Cc2c(C(=O)N/N=C/c3ccc(C(C)(C)C)cc3)nnn2-c2nonc2N)CC1`
98.1%

# query: inhibition of entry C=C(C)[C@@H]1CCC2(C(=O)O)CC[C@]3(C)[C@H](CC[C@@H]4[C@@]5(C)CCC(=O)C(C)(C)[C@@H]5CC[C@]43C)[C@@H]12 (stereo partly specified)
86.7%

# query: inhibition of entry `COc1ccccc1[C@]1(C)ON(c2ccccc2C(F)(F)F)C1=O`
105%

# query: inhibition of entry `CC(C)CNC(=O)c1coc(=O)c(Br)c1`
86%
